This listing pairs molecules with measured IC50.
Study Target: human 5-HT2A receptor (Homo sapiens, UniProt P28223)
Construct: host or cells: CHO-K1
Sequence (P28223 whole entry): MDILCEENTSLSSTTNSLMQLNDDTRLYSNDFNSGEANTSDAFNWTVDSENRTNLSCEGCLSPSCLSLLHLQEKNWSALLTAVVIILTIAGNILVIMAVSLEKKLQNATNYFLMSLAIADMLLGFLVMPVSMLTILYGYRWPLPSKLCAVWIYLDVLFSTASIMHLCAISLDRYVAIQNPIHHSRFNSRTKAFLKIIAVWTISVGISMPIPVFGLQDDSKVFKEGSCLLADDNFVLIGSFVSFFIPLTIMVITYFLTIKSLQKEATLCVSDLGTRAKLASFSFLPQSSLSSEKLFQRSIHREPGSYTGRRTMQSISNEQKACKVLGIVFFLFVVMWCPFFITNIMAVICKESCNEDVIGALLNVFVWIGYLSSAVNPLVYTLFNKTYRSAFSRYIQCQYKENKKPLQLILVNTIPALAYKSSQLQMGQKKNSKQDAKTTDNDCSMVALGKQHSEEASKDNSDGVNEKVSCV
Protocol Summary: 5HT2A Antagonism Assay (Euroscreen FAST-05051), IP-One HTRF
Type: cell-based
Protocol Conditions: 5-HT2A (IC50), CHO-K1 cells expressing human 5-HT2A, reference agonist at EC80, IP-One

| Molecule | IC50 |
| --- | --- |
| CNCC1Cc2cc(C)ccc2Oc2cccnc21 (single isomer, unassigned) | < 1 µM |
| Cc1ccc2c(n1)C(CN)Cc1ccccc1O2 (single isomer, unassigned) | < 1 µM |
| Cc1ccc2c(c1)CC(CN)c1ncccc1O2 (single isomer, unassigned) [Compound 128] | 1 to 10 µM |
| NCC1Cc2ccccc2Oc2c(F)cccc21 (single isomer, unassigned) [Compound 101] | > 10 µM |
| NCC1Oc2ccccc2Oc2cccnc21 (single isomer, unassigned) | > 10 µM |
| NCC1Cc2cccc(F)c2Oc2ccccc21 (single isomer, unassigned) [Compound 84] | > 10 µM |
| NCC1Cc2cccc(F)c2Oc2ccccc21 (single isomer, unassigned) [Compound 85] | 1 to 10 µM |
| C[C@H]1c2ccccc2Oc2cccnc2[C@@H]1CN (stereo in doubt) | > 10 µM |
